experiment: AUC (0 to t) in ICR mouse at 3 mg/kg, po administered via gavage measured after 0.25 to 24 hrs by UPLC/MS analysis; format: ADME, organism-based; set-up: time upper 24 hr, time lower 0.25 hr, dose 3 mg/kg, route oral; details: in vivo
MEASUREMENT TYPE: AUC(0-t) (ng·h/mL)

[[record]]
compound = "Cc1ccc(-n2c(C)nnc2-c2ccc3c(c2)N(C2CC2)C(C)C(=O)N3C)cc1 (stereo unspecified)"
output_unit = "ng·h/mL"
reported_result = 243


* * *

target: Cytochrome P450 2C19 (Homo sapiens, UniProt P33261); experiment: Time-dependent inhibition of CYP2C19 in human liver microsomes at 10 uM using mephenytoin as substrate preincubated up to 30 mins followed by NADPH generating system addition and measured after 10 mins; format: ADME
Sequence (P33261 whole entry): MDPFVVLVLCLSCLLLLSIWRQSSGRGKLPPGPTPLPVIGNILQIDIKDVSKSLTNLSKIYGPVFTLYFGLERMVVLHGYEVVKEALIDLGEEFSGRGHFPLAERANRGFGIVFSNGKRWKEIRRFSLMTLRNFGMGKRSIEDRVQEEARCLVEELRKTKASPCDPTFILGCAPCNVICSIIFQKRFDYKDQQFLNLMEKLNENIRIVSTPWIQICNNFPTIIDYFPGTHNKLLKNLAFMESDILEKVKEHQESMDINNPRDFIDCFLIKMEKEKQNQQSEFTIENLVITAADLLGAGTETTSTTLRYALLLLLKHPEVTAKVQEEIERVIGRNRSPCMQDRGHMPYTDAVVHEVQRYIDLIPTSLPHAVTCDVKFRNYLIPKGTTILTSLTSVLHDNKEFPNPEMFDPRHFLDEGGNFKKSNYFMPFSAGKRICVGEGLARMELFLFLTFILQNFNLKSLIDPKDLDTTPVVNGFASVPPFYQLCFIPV
MEASUREMENT TYPE: TDI

[[record]]
compound = "Cc1ccc(-n2c(C)nnc2-c2ccc3c(c2)N(C2CC2)C(C)C(=O)N3C)cc1 (stereo unspecified)"
reported_result = "Not Active"

[[record]]
compound = "Cc1ccc(-n2c(C)nnc2-c2ccc3c(c2)N(C2CCCC2)[C@H](C)C(=O)N3C)cc1"
reported_result = "Not Active"

[[record]]
compound = "Cc1ccc(-n2nc(C(=O)N3CCN(C)CC3)nc2-c2ccc3c(c2)N(C2CCCC2)[C@H](C)C(=O)N3C)cc1"
reported_result = "141 ×10⁻⁴ /min"

[[record]]
compound = "Cc1ccc(-n2cnnc2-c2ccc3c(c2)N(C2CC2)C(C)C(=O)N3C)cc1 (stereo unspecified)"
reported_result = "Not Active"

[[record]]
compound = "Cc1ccc(-n2nc(C(=O)N3C[C@@H](C)N[C@@H](C)C3)nc2-c2ccc3c(c2)N(C2CCCC2)[C@H](C)C(=O)N3C)cc1"
reported_result = "Not Active"

[[record]]
compound = "Cc1ccc(-n2nc(C(=O)N3CCN(C)CC3)nc2-c2ccc3c(c2)N(C2CC2)C(C)C(=O)N3C)cc1 (stereo unspecified)"
reported_result = "Not Active"

